systemTested: RXRα (Homo sapiens, UniProt P19793)
Construct: GeneBLAzer bla HEK 293T reporter line (Invitrogen)
Sequence (P19793 225-462 limits assumed): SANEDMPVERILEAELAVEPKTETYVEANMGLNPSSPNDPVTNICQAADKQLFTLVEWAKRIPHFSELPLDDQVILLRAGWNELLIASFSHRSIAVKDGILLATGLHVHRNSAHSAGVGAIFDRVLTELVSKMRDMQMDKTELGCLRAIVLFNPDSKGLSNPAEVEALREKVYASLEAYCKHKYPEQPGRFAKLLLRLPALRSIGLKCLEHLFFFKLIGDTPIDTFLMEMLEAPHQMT
assayInfo: GAL-LBD beta-lactamase reporter qHTS, HEK […], […] nm ratio
measurementKind: pEC50
Scale note: pEC50 = -log10(concentration in M).

CC1(C)CCC(C)(C)c2cc(C(=O)Nc3ccc(C(=O)O)cc3)ccc21 [AM-580] :: 6.21

input: Sample C/C(=C\c1ccc(C(=O)O)cc1)c1ccc2c(c1)C(C)(C)CCC2(C)C [TTNPB] — what was its pEC50?
output: 6.15

----------
systemTested: PPARγ (Homo sapiens)
Construct: gene PPARG; GeneBLAzer bla HEK 293T reporter line (Invitrogen)
Sequence (P37231 238-505 limits assumed): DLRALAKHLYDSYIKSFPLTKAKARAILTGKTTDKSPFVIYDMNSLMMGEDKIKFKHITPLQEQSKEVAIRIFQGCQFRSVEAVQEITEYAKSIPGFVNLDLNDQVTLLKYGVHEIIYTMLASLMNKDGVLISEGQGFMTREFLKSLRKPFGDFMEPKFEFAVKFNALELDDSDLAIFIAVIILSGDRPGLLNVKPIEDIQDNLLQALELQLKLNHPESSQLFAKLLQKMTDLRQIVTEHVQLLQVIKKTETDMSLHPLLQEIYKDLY
assayInfo: cell-based
Parameters: species or system HEK 293T; GeneBLAzer GAL4-LBD beta-lactamase reporter, antagonist mode with added agonist, 460/530 nm FRET ratio
conditionInfo: with rosiglitazone 0.05 uM; antagonist mode, known agonist added; read-out: Control Titration EC50/IC50 (µM), antagonist mode
From the text: β-Lactamase reporter gene assay and qHTS. […] All cell culture reagents were obtained from Invitrogen.
measurementKind: IC50 (µM)
Answer format: numeric, µM implied, no suffix.

input: Sample O=C(Nc1ccccc1)c1cc([N+](=O)[O-])ccc1Cl — what was its IC50?
output: 0.011

----------
systemTested: PPARδ (Homo sapiens, UniProt Q03181)
Construct: gene PPARD; GeneBLAzer bla HEK 293T reporter line (Invitrogen)
Sequence (Q03181 139-441 limits assumed): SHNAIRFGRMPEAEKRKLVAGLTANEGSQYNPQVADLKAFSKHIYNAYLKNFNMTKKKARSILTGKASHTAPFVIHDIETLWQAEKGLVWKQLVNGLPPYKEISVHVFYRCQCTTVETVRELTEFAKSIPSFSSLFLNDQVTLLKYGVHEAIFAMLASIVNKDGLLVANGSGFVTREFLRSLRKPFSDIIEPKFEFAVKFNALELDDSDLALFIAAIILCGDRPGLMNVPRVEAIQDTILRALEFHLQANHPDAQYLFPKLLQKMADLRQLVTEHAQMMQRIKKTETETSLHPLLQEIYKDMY
assayInfo: cell-based
Parameters: species or system HEK 293T; GeneBLAzer GAL4-LBD beta-lactamase reporter, agonist mode, 460/530 nm FRET ratio
conditionInfo: agonist mode; read-out: Control Titration EC50/IC50 (µM), agonist mode
Source text: β-Lactamase reporter gene assay and qHTS. […] All cell culture reagents were obtained from Invitrogen.
measurementKind: EC50 (µM)
Answer format: numeric, µM implied, no suffix.

input: Sample CCCc1c(OCCCOc2ccc(OCC(=O)O)cc2)ccc(C(C)=O)c1O — what was its EC50?
output: 0.036

----------
systemTested: PPARγ (Homo sapiens)
Construct: gene PPARG; GeneBLAzer bla HEK 293T reporter line (Invitrogen)
assayInfo: GAL-LBD beta-lactamase reporter qHTS, HEK […], […] nm ratio
Assay type: cell-based
measurementKind: pIC50
Scale note: pIC50 = -log10(concentration in M).

input: Sample O=C(Nc1ccccc1)c1cc([N+](=O)[O-])ccc1Cl — what was its pIC50?
output: 4.90

----------
systemTested: PPARγ (Homo sapiens)
Construct: gene PPARG; GeneBLAzer bla HEK 293T reporter line (Invitrogen)
assayInfo: GAL-LBD beta-lactamase reporter qHTS, HEK […], […] nm ratio
Format: cell-based
conditionInfo: antagonist mode; nonsaturating agonist pre-added; […]-18 h at […] °C
measurementKind: pIC50
Scale note: pIC50 = -log10(concentration in M).

input: Sample CC(C)(c1ccc(OCC2CO2)cc1)c1ccc(OCC2CO2)cc1 (stereo not shown) [BADGE] — what was its pIC50?
output: 4.30
